Tested on: ncRNAs (SEQ ID NO 28-89)
Experiment: ncRNA arrays of melanocytes, keratinocytes, normal skin, melanoma cell lines and patient samples
Design: species or system human
Conditions: melanoma patient 6 sample compared to normal skin
Protocol: An ncRNA array platform that contains over 10,000 putative (>200 nt) ncRNAs including most of the known ncRNAs in mouse and human was conducted to evaluate ncRNAs within melanoma. Lack of coding potential was estimated by an algorithm that scores various characteristics of protein-coding genes, including open reading frame length, synonymous/non-synonymous base substitution rates and similarity to known proteins. […]
criterion met means recorded ncRNA array expression, patient 6 is -1 or above; criterion not met means it is below -1.

ncRNA array expression, patient 6 >= -1 for SEQ ID NO 32 (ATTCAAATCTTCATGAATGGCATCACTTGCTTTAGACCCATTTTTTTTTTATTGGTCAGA; DNA, backbone and methylation of C not given here; listed as Homo sapiens) ?
criterion met

State whether the measured ncRNA array expression, patient 6 reaches -1, counting equality as reaching it, for SEQ ID NO 47 (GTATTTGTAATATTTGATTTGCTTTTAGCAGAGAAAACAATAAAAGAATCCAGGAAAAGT; listed as DNA, chemistry not given here; listed as Homo sapiens)
criterion not met

Given the entry SEQ ID NO 62 (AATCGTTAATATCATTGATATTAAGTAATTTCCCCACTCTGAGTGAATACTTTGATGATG; listed as DNA, chemistry not given here; listed as Homo sapiens) , answer whether its ncRNA array expression, patient 6 meets or surpasses -1.
criterion met

# bool: ncRNA array expression, patient 6 of SEQ ID NO 55 (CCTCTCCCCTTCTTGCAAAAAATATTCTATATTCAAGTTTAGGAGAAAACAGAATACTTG; listed as DNA, chemistry not given here; listed as Homo sapiens) >= -1
criterion not met

Determine whether measured ncRNA array expression, patient 6 meets or exceeds -1 for SEQ ID NO 59 (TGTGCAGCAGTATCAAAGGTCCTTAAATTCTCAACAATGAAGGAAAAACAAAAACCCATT; listed as DNA, chemistry not given here; listed as Homo sapiens)
criterion not met
